The binders listed here are annotated with their fold reduction in binding (IC50 variant / IC50 VEGF(1-109)).
- TARGET: T1, KDR (1-3) monomer (UniProt P35968 20-327, limits assumed, biotin-labeled in the ELISA of Example 8)
- T1 construct: domain: domains 1 to 3; Genentech reagent; also called domains 1 to 3 of KDR
- T1 sequence (P35968 20-327 limits assumed): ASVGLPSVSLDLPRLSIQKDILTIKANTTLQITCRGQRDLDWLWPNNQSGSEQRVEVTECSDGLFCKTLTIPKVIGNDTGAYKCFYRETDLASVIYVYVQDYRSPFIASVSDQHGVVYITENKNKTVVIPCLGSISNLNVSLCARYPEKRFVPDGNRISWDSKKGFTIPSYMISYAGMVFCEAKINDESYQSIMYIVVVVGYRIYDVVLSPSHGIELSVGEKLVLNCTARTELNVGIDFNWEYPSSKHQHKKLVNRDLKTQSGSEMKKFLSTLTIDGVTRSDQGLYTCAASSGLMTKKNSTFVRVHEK
- ASSAY REMARKS: competition ELISA: plate coated with VEGF (8-109), 100 pM biotin-labeled KDR(1-3), serial dilutions of the competing VEGF (Example 8)
Just so you know, I need the unit written after the number.

The following binders have reported results that may help.
[
  {
    "BINDER": "Phe 17* (ligand) APMAEGGGQNHHEVVKAMDVYQRSYCHPIETLVDIFQEYPDEIEYIFKPSCVPLMRCGGCCNDEGLECVPTEESNITMQIMRIKPHQGQHIGEMSFLQHNKCECRPKKD",
    "REPORTED RESULT": "45 fold"
  },
  {
    "BINDER": "Lys 48** (ligand) APMAEGGGQNHHEVVKFMDVYQRSYCHPIETLVDIFQEYPDEIEYIFAPSCVPLMRCGGCCNDEGLECVPTEESNITMQIMRIKPHQGQHIGEMSFLQHNKCECRPKKD",
    "REPORTED RESULT": "1 fold"
  },
  {
    "BINDER": "Ile 46* (ligand) APMAEGGGQNHHEVVKFMDVYQRSYCHPIETLVDIFQEYPDEIEYAFKPSCVPLMRCGGCCNDEGLECVPTEESNITMQIMRIKPHQGQHIGEMSFLQHNKCECRPKKD",
    "REPORTED RESULT": "96 fold"
  },
  {
    "BINDER": "Tyr 25** (ligand) APMAEGGGQNHHEVVKFMDVYQRSACHPIETLVDIFQEYPDEIEYIFKPSCVPLMRCGGCCNDEGLECVPTEESNITMQIMRIKPHQGQHIGEMSFLQHNKCECRPKKD",
    "REPORTED RESULT": "6 fold"
  },
  {
    "BINDER": "Leu 66** (ligand) APMAEGGGQNHHEVVKFMDVYQRSYCHPIETLVDIFQEYPDEIEYIFKPSCVPLMRCGGCCNDEGAECVPTEESNITMQIMRIKPHQGQHIGEMSFLQHNKCECRPKKD",
    "REPORTED RESULT": "1 fold"
  }
]

--- query ---
What value of fold reduction in binding (IC50 variant / IC50 VEGF(1-109)) has been reported for the following binder? Gln 89 (ligand) APMAEGGGQNHHEVVKFMDVYQRSYCHPIETLVDIFQEYPDEIEYIFKPSCVPLMRCGGCCNDEGLECVPTEESNITMQIMRIKPHQGAHIGEMSFLQHNKCECRPKKD
1 fold
